Molecular target: rh-α5β1 (Homo sapiens, UniProt P05556+P08648)
Sequence (P08648 42-894 limits assumed): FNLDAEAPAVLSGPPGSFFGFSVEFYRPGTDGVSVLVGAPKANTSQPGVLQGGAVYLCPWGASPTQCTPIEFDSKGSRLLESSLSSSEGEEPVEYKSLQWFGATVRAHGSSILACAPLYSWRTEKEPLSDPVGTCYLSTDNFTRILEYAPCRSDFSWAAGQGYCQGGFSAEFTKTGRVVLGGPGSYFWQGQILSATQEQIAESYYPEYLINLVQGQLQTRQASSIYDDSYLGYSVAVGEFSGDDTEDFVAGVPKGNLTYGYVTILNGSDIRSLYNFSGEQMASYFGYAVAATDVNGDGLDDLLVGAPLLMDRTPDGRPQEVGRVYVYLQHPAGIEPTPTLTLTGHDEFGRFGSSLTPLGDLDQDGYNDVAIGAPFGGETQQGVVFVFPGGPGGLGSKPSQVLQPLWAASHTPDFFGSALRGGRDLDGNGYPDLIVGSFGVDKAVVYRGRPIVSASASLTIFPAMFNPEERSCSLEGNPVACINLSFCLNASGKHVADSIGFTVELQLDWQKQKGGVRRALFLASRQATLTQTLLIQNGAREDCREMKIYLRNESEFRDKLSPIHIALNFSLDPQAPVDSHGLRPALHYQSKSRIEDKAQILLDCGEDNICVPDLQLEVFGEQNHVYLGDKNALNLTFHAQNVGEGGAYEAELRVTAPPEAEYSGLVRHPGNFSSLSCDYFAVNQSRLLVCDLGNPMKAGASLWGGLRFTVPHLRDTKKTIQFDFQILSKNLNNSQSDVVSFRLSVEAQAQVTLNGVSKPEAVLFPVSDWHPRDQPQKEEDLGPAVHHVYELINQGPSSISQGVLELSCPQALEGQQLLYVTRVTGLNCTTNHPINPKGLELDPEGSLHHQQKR
Sequence (P08648 895-995 limits assumed): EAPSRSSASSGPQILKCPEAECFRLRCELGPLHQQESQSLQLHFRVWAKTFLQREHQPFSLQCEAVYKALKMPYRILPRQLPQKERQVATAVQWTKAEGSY
Sequence (P05556 21-728 limits assumed): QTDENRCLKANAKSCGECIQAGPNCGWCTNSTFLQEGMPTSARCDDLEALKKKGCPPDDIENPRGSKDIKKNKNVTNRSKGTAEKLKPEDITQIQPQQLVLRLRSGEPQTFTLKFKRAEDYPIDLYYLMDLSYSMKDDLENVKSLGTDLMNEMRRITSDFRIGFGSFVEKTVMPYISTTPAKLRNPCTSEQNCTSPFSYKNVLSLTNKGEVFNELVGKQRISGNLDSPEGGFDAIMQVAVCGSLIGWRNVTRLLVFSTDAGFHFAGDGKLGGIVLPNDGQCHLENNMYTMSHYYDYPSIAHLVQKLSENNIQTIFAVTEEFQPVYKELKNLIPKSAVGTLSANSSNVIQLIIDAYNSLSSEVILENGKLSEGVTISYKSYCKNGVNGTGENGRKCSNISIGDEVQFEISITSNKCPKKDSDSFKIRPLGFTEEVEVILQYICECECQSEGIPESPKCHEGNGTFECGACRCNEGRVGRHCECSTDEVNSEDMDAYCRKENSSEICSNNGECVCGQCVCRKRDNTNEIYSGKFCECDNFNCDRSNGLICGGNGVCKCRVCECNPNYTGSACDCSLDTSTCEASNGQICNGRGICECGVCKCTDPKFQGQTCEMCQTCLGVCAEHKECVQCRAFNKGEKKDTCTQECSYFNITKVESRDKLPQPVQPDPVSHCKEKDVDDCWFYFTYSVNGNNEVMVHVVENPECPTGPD
Test: Competition binding studies by Biolayer Interferometry (epitope groups)
Settings: immobilized mAb A2-7A05; secondary mAb pre-mixed with 20 nM rh-α5β1; relative to antigen alone
endpointName: % Response (%)
Numbers only, in %.

Exercise: Please give the measured % Response for this molecule: A-15B08: anti-α5β1 antibody, VH SEQ ID NO:25, VL SEQ ID NO:26; tested as mouse hybridoma antibody and as human IgG4 chimera (antibody, V domains shown, A-15B08 VH Sequence; A-15B08 VL Sequence, tested as mouse hybridoma antibody and as human IgG4 chimera) VH: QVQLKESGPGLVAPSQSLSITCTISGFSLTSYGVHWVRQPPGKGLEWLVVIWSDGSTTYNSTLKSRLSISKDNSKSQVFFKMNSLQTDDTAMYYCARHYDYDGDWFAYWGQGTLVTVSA VL: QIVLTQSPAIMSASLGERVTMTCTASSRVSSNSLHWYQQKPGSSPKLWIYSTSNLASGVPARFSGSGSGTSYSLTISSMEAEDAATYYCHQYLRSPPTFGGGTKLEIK
Key: 666.22
